System: UACC-257 melanoma
Assay overview: NCI tumour cell line growth inhibition, 48 h
Parameter: TGI

Indicate the recorded TGI value for this compound: Cc1ccc(C)c(NC(=O)C(Cc2c[nH]c3ccccc23)NC(=O)OCc2ccccc2)c1 (stereo unspecified)
34.3 µM

Please give measured TGI of the following entry: `CSc1ccc2c(cc1=O)[C@@H](NC(=O)c1ccc(F)cc1)CCc1cc(O)c(O)c(O)c1-2`
> 100 µM

----------
Test system: BT-549 breast
Assay overview: NCI tumour cell line growth inhibition, 48 h
Parameter: TGI

Sample answers from the record:
CCOC1SC(SC)=NN1C(=O)C(OC(C)=O)C(OC(C)=O)C(OC(C)=O)C(OC(C)=O)C(=O)N1N=C(SC)SC1OCC (stereo not given); > 100 µM
C[n+]1ccc(-c2c3nc(c(-c4ccc5c(ccc[n+]5C)c4)c4ccc([nH]4)c(-c4cc[n+](C)cc4)c4nc(c(-c5ccc6c(ccc[n+]6C)c5)c5ccc2[nH]5)C=C4)C=C3)cc1; > 50 µM
N=c1ccn2c(n1)O[C@@H]1[C@@H](O)[C@H](CO)O[C@@H]12; > 100 µM
Cc1ccc(S(=O)(=O)n2cc(-c3nnnn3-c3ccc(Cl)cc3)c(=O)c3ccccc32)cc1; > 100 µM

Please indicate TGI recorded for `O=C(O)/C=C\C(=O)Nc1ccc2c(c1)C(=O)c1cc(F)ccc1-2`
> 100 µM

Dear colleague, please send me the reported TGI for `CC(=O)O[C@H]1[C@@H](N2CCN(C)CC2)C[C@H]2[C@@H]3CC=C4C[C@@H](N5CCCC5)CC[C@]4(C)[C@H]3CC[C@@]21C` when you can.
> 100 µM

Identify TGI associated with the compound N#CC(c1cc(Cl)ncn1)c1nc2ccccc2s1 (stereo not given)
15.2 µM

In one line, give reported TGI of the entry `COc1ccc(Nc2ncccc2C(=O)NCc2cn(Cc3cccc(Oc4ccccc4)c3)nn2)cc1` .
> 100 µM

Please give the documented TGI of CC(NC(=O)C(N)CC(=O)O)NC(=O)N1CCCC1 (stereo not given)
> 100 µM

// Input: `[N-]=[N+]=NC1=C(c2ccccc2)C(=O)c2cccc3cccc1c23` . Output its TGI only.
34.1 µM

Each recorded value in this set is attributed to PubChem BioAssay (NCI).
